Kindly supply the reported TGI values for the records listed here.
# Tested on: TK-10 renal
# TEST: NCI tumour cell line growth inhibition, 48 h

Give TGI for this entry on TK-10 renal: Clc1ccc(C2ON=C(c3ccccc3)N2C23CC4CC(CC(C4)C2)C3)c(Cl)c1 (centres undefined) > 10 µM

Give TGI for this entry on TK-10 renal: N=C1S/C(=C/c2ccc(-c3ccc4c(c3)C(=O)NC4=O)o2)C(=O)N1c1ccc(Br)cc1 > 100 µM

Give TGI for this entry on TK-10 renal: [N-]=[N+]=Nc1ccc2c(c1)Sc1ccccc1N2CCCCN1CCN(Cc2ccc(C(=O)c3ccccc3)cc2)CC1 > 96.2 µM

Give TGI for this entry on TK-10 renal: CC1SC(c2ccc(Cl)c(Cl)c2)N(NC(=O)C(O)c2ccccc2)C1=O (centres undefined) > 100 µM

Give TGI for this entry on TK-10 renal: CC(=O)Nc1ccc2c(C3=C(c4cn(C)c5ccccc45)C(=O)NC3=O)cn(C)c2c1 > 25 µM

Give TGI for this entry on TK-10 renal: COc1cc2c(cc1OCCCCCN1CCN(c3cc(=O)oc4ccccc34)CC1)N=C[C@@H]1CCCN1C2=O 13 µM

Give TGI for this entry on TK-10 renal: COC(=O)[C@]12CC[C@H]3CN(C(=O)OCc4ccccc4)[C@H]([C@H]31)[C@H](C(=O)OCC[Si](C)(C)C)N2S(=O)(=O)c1ccc(C)cc1 > 100 µM

Give TGI for this entry on TK-10 renal: CC(C)(C)OC(=O)NCC(c1c[nH]c2ccc(Br)cc12)c1c[nH]c2ccc(Br)cc12 25.2 µM

Give TGI for this entry on TK-10 renal: O=C(/C=C/c1cccc([N+](=O)[O-])c1)c1cccnc1 > 100 µM

Give TGI for this entry on TK-10 renal: CSc1nc(=Nc2ccccc2)sn1-c1ccccc1 60.5 µM

Give TGI for this entry on TK-10 renal: CC(O)(CCCCCl)c1nc2ccccc2s1 (centres undefined) > 100 µM

Give TGI for this entry on TK-10 renal: O=C(Nc1ccc(Oc2cccc(Cl)c2)c(Cl)c1)c1cnccn1 > 50 µM

Give TGI for this entry on TK-10 renal: COc1ccccc1-n1c(C)nc2ccccc2c1=O > 100 µM

Give TGI for this entry on TK-10 renal: COCOc1cc(OC)ccc1C/C=N/O > 100 µM

* * *

# Tested on: PC-3 prostate
# TEST: NCI tumour cell line growth inhibition, 48 h
MEASURED_QUANTITY: TGI

Assign TGI to the following record: OC1(c2ccccc2)CCCCCCCCC(O)(c2ccccc2)CCCCCCCC1 (centres undefined) > 100 µM

Assign TGI to the following record: O=C(CC(Cl)(Cl)C(Cl)(Cl)Cl)c1ccccc1 29.1 µM

Assign TGI to the following record: CC(=O)Nc1ccc2c(C3=C(c4cn(C)c5ccccc45)C(=O)NC3=O)cn(C)c2c1 > 25 µM

Assign TGI to the following record: Clc1ccc(C2ON=C(c3ccccc3)N2C23CC4CC(CC(C4)C2)C3)c(Cl)c1 (centres undefined) > 10 µM

Assign TGI to the following record: O=c1n(-c2ccccc2)c(=O)n2n1C1C=CC2CCCCCC1 > 100 µM

Assign TGI to the following record: CCn1cc(C(=O)N/N=C/c2ccc(Br)cc2)c(=O)c2cc(F)c(N3CCNC(C)C3)c(F)c21 (centres undefined) 3.14 µM

Assign TGI to the following record: O=c1ccn(C2OC(COC3CCCCO3)C(OC3CCCCO3)C2OC2CCCCO2)c(=O)n1-c1ccccc1 (centres undefined) > 100 µM

Assign TGI to the following record: COC(=O)[C@]12CC[C@H]3CN(C(=O)OCc4ccccc4)[C@H]([C@H]31)[C@H](C(=O)OCC[Si](C)(C)C)N2S(=O)(=O)c1ccc(C)cc1 > 100 µM

Assign TGI to the following record: COC(=O)C(=O)C(C(=O)OC)C(=O)C(=O)Nc1ccccc1C(N)=O (centres undefined) > 100 µM

Assign TGI to the following record: COc1ccc(Cc2nc3cc([N+](=O)[O-])ccc3n2C[C@@H]2CCCN3CCCCC23)cc1 (some centres undefined) > 100 µM

Assign TGI to the following record: CCC1([N+](=O)[O-])CC2C=CC1C2 (centres undefined) > 100 µM

Assign TGI to the following record: C/C=C\C(CC(=O)O)CN1CCC2=C(C1)C(S(=O)(=O)C(F)(F)F)c1ccccc12 (centres undefined) > 100 µM

Assign TGI to the following record: CCNC(=S)NNC(=O)c1csc(NC(=S)NC2CCCCC2)n1 64.5 µM

Assign TGI to the following record: Oc1ccc(CCl)c2cccnc12 > 100 µM

Assign TGI to the following record: O=C1OC(c2ccccc2)=N/C1=C\c1ccc(F)cc1 > 100 µM

Assign TGI to the following record: O=C(NC1CCC(Br)CC1)C1CCCC(S(=O)(=O)NC2CCCCC2)C1 (centres undefined) 37.1 µM

Assign TGI to the following record: Cn1cc(C2=C(c3c4n(c5ccccc35)CCN(C(N)=S)C4)C(=O)NC2=O)c2ccccc21 > 25 µM

Assign TGI to the following record: O=C1CC2(CCC(O)(c3cccc4ccccc34)C(C(=O)c3cccc4ccccc34)C2)C(=O)c2ccccc2N1 (centres undefined) > 100 µM

Assign TGI to the following record: CC(=NCC(=O)O)c1ccccc1 > 100 µM

Assign TGI to the following record: ClC1=C(Cl)C(Cl)=C(Cl)C1=Cc1ccccc1 3.7 µM

Assign TGI to the following record: CC(=O)OC1Oc2ccc(C)cc2-c2oc(=O)c(-c3cc4ccccc4oc3=O)cc21 (centres undefined) 8.54 µM

Assign TGI to the following record: COC(=O)C([C@H]1CC[C@H](OCc2ccccc2)[C@@]1(O)COCc1ccccc1)C(C)(O)CCc1ccccc1 (some centres undefined) 16.3 µM

Assign TGI to the following record: c1ccc(CSSSCc2ccccc2)cc1 > 100 µM

Assign TGI to the following record: CC(=O)Nc1ccc(NNc2cc(=O)n(C)c(=O)[nH]2)cc1 12.3 µM

Assign TGI to the following record: CC1=C[C@H](O)[C@@]2(C)[C@@H]([C@@H]1C)[C@H]1CC[C@@H]3[C@@]4(C)CC[C@H](O)C(C)(C)[C@@H]4CC[C@@]3(C)[C@]1(C)C[C@@H]2O 35.1 µM

Assign TGI to the following record: Clc1ccc(CSC2=NCCN2)cc1Cl 23.7 µM

Assign TGI to the following record: COc1cc2oc(-c3ccc4c(c3)OCO4)c(OC)c(=O)c2c(OC)c1OC > 100 µM

Assign TGI to the following record: Oc1c(Cl)cc(Cl)c2ccc(Cn3cc(-c4cc(F)cc(F)c4)nn3)nc12 18.8 µM

Assign TGI to the following record: Cc1cc(-c2c(Br)cc(C(=O)O)n2C)on1 > 100 µM

Assign TGI to the following record: C=C=C(C)C(=O)N(C(C)C)C(C)C > 100 µM

Assign TGI to the following record: CC(C)(C)C(=O)CC1(O)C=C(O)C(O)(CC(=O)C(C)(C)C)O1 (centres undefined) > 100 µM

Assign TGI to the following record: CCOC(=O)/C=C(/OCC)[C@@H]1C(C(=O)c2ccc(Cl)cc2)[C@H]1/C(=C\C(=O)OCC)OCC (some centres undefined) > 100 µM

Assign TGI to the following record: COc1ccc(OC)c(NC(=O)c2c(Cl)c(Cl)c(Cl)c(Cl)c2-c2nc3ccccc3[nH]2)c1 > 100 µM

Assign TGI to the following record: c1ccc(CSc2nnc3c4c5c(sc4nc(-c4cccnc4)n23)CCCCCC5)cc1 10.8 µM
